- TARGET OR TEST SYSTEM: VIP receptor of guinea pig lung membranes (guinea pig)
- PROTOCOL: competition with 0.01 nM 125I-VIP, guinea pig lung membranes
No end group written: not given here.
Below: a set of entries, each annotated with reported IC50.

Illustrative cases are given below, each with its answer.
{"BINDER": "HSDAVFTDNYTRLRKQMAVKKYLNSILNKGC ((ε-K): lysine 29 linked through its ε-amino group to the carboxyl group of the preceding residue; C-terminal amide) [P887]", "READOUT NAME": "IC50", "RECORDED RESULT": "< 10 nM"}
{"BINDER": "HSDAVFTDNYTRLRKQMAVKKYLNSILNC (C-terminal C(BAT): S-(N6,N9-bis(2-mercapto-2-methylpropyl)-6,9-diazanonan-1-yl)cysteine; C-terminal amide) [P917]", "READOUT NAME": "IC50", "RECORDED RESULT": "< 10 nM"}

Turning now to a further record.
Qu. Can you look up the measured IC50 of HSDAVFTDNYTRLRKQMAVKKYLNSILNGGC-NH2 [P916] for me?
Ans. < 10 nM

The measurements presented in this section are drawn from patent US5849261.
